tested on: NCI/ADR-RES ovarian; assay: NCI tumour cell line growth inhibition, 48 h
measurementLabel: TGI (µM)
The figure you give is taken to be in µM; do not add the unit.

CN(C)/C=C/c1nnnn1-c1ccc(I)cc1 | 63.5
CCN(CC)CCC(=O)c1ccc(Oc2ccccc2)cc1 | 56.4
CCOC(=O)C#Cc1c(CC(=O)OCC)nnn1[C@H]1O[C@@H](CO)[C@@H]2OC(C)(C)O[C@@H]21 | 36.5

As a next step, examine the compound that follows.
Query :: Determine from records and report TGI for COC(=O)C1(C)CCCC2(C)C3CCC4CC3(C=C4CO)CCC12 (stereo unspecified)
Result :: 75.5

---

tested on: T-47D breast; experiment: NCI tumour cell line growth inhibition, 48 h; in the data active = GI50 below about 0.43 µM; inactive = the rest
Could you please pick one outcome from this set? class 1 (active), class 0 (inactive)

CN(C)CCNC(=O)c1cc2c3ccccc3[nH]c2c2ncccc12 | class 0
CC(C)C[C@@H]1NC(=O)[C@@H]2CCCN2C(=O)[C@@H]2CCCN2C(=O)[C@H](CC(C)C)NC(=O)[C@H](CO)NC(=O)[C@H](CCCCN)NC(=O)[C@H]([C@H](C)O)NC(=O)[C@@H]2CCCC[C@@H](NC1=O)C(=O)N[C@@H](Cc1ccccc1)C(=O)N1CCC[C@H]1C(=O)N[C@@H](CC(=O)O)C(=O)NCC(=O)N[C@@H](CCCN=C(N)N)C(=O)N2 | class 0
COc1cccc2c(=O)c3c(sc12)c(NCCN(C)C)nc1ccccc13 | class 0
CN(C)c1ccc(O)c2c1C[C@H]1C[C@H]3[C@H](N(C)C)C(=O)C(C(N)=O)=C(O)[C@@]3(O)C(=O)C1=C2O | class 0
O=C(N/N=C\c1ccc(N(CCCl)CCCl)cc1Cl)c1cccnc1 | class 0

Query :: What outcome does the record of this test show for COc1ccc2nc(C)cc(Nc3ccccc3O)c2c1 ?
Result :: class 0

Query :: Identify the outcome logged in this assay for the compound shown: O=C1/C(=C/c2ccc(Cl)cc2)COc2ccc(O)c(O)c21
Result :: class 0

Query :: Any idea what this test logged for COC(=O)[C@@]1(O)C[C@H]2O[C@]1(C)n1c3ccccc3c3c4c(c5c6ccccc6n2c5c31)C(=O)NC4 ?
Result :: class 1

Query :: Hey, what did the test say about COc1cc([N+](=O)[O-])c(OC)cc1-c1nc2sc(Cl)cn2c1/C=N/NC(=N)N/N=C/c1c(-c2cc(OC)c([N+](=O)[O-])cc2OC)nc2sc(Cl)cn12 ?
Result :: class 0

Query :: What did this assay record as the result for COc1cc(/C=C/C(=O)c2c(C)n([O-])c3ccc(Cl)cc3[n+]2=O)cc(OC)c1OC ?
Result :: class 0

Query :: Each compound tested received a call. Report the one for CC1=C(C(=O)Nc2ccc(F)c(Cl)c2)C(c2cccc(Oc3ccccc3)c2)NC(=O)N1 (stereo not drawn) .
Result :: class 0

Query :: I would be grateful if you could indicate the recorded call for N#Cc1nc2cc(F)c(F)cc2nc1-c1ccc(Cl)cc1 .
Result :: class 0

Query :: Dear all, I need the recorded test outcome for COCCNC(=O)c1ccc(-c2nc3ccc4[nH]ncc4c3c3c2CCCC3)cc1 , thank you.
Result :: class 0

---

tested on: SNB-75 CNS; assay: NCI tumour cell line growth inhibition, 48 h
A collection of compounds and their measured GI50

C[CH2][Sn]([Cl])([Cl])[CH2]C | 24.9 µM

Query :: Indicate the recorded GI50 value for this compound: CN(C)CCNC(=O)c1cc2c3ccccc3[nH]c2c2ncccc12
Result :: 5.44 µM

Query :: Answer with the recorded GI50 for the compound listed here: CS(=O)(=O)Nc1cc(-c2ccc3ncnc(Nc4ccc5c(cnn5Cc5ccccc5F)c4)c3c2)cnc1Cl
Result :: 0.157 µM

Query :: Fill in GI50 for record COc1ccc2c(c1)OC(N)=C(C#N)C2c1ccc(F)cc1 (stereo unspecified)
Result :: 1.4 µM

---

A collection of compounds and their measured GI50
tested on: CCRF-CEM leukemia; experiment: NCI tumour cell line growth inhibition, 48 h

Guide cases for GI50, answers given:
C=C1CC[C@@H]2[C@](C)(COC(C)=O)[C@H](OC(C)=O)CC[C@@]2(C)[C@@H]1C/C=C1/C(=O)OC[C@H]1OC(C)=O | 1120 nM
C[CH2][Sn]([Cl])([Cl])[CH2]C | 9500 nM
N#CC1=C(N)Oc2c(sc3c(F)cccc23)C1c1ccc(F)cc1 (configuration not stated) | 470 nM
O=C(/C=C/c1ccc(C(F)(F)F)cc1)c1ccc(Nc2nc(NCCO)nc(N3CCOCC3)n2)cc1 | 2410 nM
Cc1nn(-c2nc3ccccc3[nH]2)c2c1C(c1ccc3c(c1)OCO3)CC(=O)N2 (configuration not stated) | 1940 nM

Query :: # return recorded GI50 for input CN(C)CCNC(=O)c1cc2c3ccccc3[nH]c2c2ncccc12
Result :: 3460 nM

Query :: Return GI50 (reported value) for this compound: CCCN(CCC)C(=O)[C@H](CC)[C@@H]1CC[C@@H](C)[C@@H]([C@H](C)[C@@H](O)[C@@H](C)C(=O)[C@H](CC)C2O[C@]3(C=C[C@@H](O)[C@]4(CC[C@@](C)([C@H]5CC[C@](O)(CC)[C@H](C)O5)O4)O3)[C@H](C)C[C@@H]2C)O1 (some centres not stated)
Result :: 2780 nM

---

test system: TK-10 renal; experiment: NCI tumour cell line growth inhibition, 48 h; in the data active = GI50 below about 0.43 µM; inactive = the rest
Pick from active, inactive when you respond.

Check out these entries, answers already filled in.
COC(=O)[C@@]1(O)C[C@H]2O[C@]1(C)n1c3ccccc3c3c4c(c5c6ccccc6n2c5c31)C(=O)NC4 | active
COC(=O)c1cc2oc(/C=C3\SC(=S)N(NC(C)=O)C3=O)cc2n1Cc1ccccc1 | inactive
NCCCCN(Cc1nc2ccccc2[nH]1)[C@H]1CCCc2cccnc21 | inactive
COc1ccc2nc(C)cc(Nc3ccccc3O)c2c1 | inactive
Cc1nn(-c2nc3ccccc3[nH]2)c2c1C(c1ccc3c(c1)OCO3)CC(=O)N2 (stereo not given) | inactive

Query :: Check the results log: what was the call for CC1=C(C(=O)Nc2ccc(F)c(Cl)c2)C(c2cccc(Oc3ccccc3)c2)NC(=O)N1 (stereo not given) ?
Result :: inactive

Query :: Please share the test call associated with CSC1C(=O)c2ccccc2/C(=N/Nc2nc3ccccc3s2)C1C (stereo not given) .
Result :: inactive

Query :: Which outcome did this test record for the compound COc1cc(/C=C/C(=O)c2c(C)n([O-])c3ccc(Cl)cc3[n+]2=O)cc(OC)c1OC ?
Result :: inactive

Query :: For O=Cc1ccc(O)c2ncccc12 , which call appears in the assay record?
Result :: inactive

Query :: Outcome logged for C[CH2][Sn]([Cl])([Cl])[CH2]C in this assay:
Result :: inactive

---

test system: MOLT-4 leukemia; test: NCI tumour cell line growth inhibition, 48 h; in the data active = GI50 below about 0.43 µM; inactive = the rest
Give your call using only these classes: active, inactive

These recorded examples may help you get a feel for the data.
COc1cc(/C=C/C(=O)c2c(C)n([O-])c3ccc(Cl)cc3[n+]2=O)cc(OC)c1OC | inactive
Oc1ccc(N=Nc2ccc(N=Nc3ccccc3)cc2)cc1 | active
COC(=O)[C@@]1(O)C[C@H]2O[C@]1(C)n1c3ccccc3c3c4c(c5c6ccccc6n2c5c31)C(=O)NC4 | active
CC1/C(=N/Nc2ccc([N+](=O)[O-])cc2)CC2C3(C)CCC2(C(C)C(=O)O)C(=O)C13 (stereo unspecified) | inactive
C=C1C(=O)O[C@H]2[C@H]1CC/C(CNS(=O)(=O)c1cccc3ccccc13)=C\CC[C@@]1(C)O[C@@H]21 | inactive
CS(=O)(=O)Nc1cc(-c2ccc3ncnc(Nc4ccc5c(cnn5Cc5ccccc5F)c4)c3c2)cnc1Cl | inactive
C=C1CC[C@@H]2[C@](C)(COC(C)=O)[C@H](OC(C)=O)CC[C@@]2(C)[C@@H]1C/C=C1/C(=O)OC[C@H]1OC(C)=O | inactive
OC(CNc1ccnc2cc(Cl)ccc12)CNC1CCCCC1 (stereo unspecified) | inactive

Query :: Could you please tell me the result logged for NCCCCN(Cc1nc2ccccc2[nH]1)[C@H]1CCCc2cccnc21 in this assay?
Result :: inactive

Query :: Please state the recorded outcome for this compound: O=C(N/N=C\c1ccc(N(CCCl)CCCl)cc1Cl)c1cccnc1
Result :: inactive

Query :: # outcome recorded in this test, key = C[CH2][Sn]([Cl])([Cl])[CH2]C
Result :: inactive

---

tested on: HS 578T breast; experiment: NCI tumour cell line growth inhibition, 48 h
measurementLabel: log10 TGI (log10 of the value in µM)
Could you please treat all values as log10 of TGI in µM?

Guide cases for log10 TGI, answers given:
COc1cc(/C=C/C(=O)c2c(C)n([O-])c3ccc(Cl)cc3[n+]2=O)cc(OC)c1OC | 1.81
O=[N+]([O-])/C=C/COCc1cc2c(cc1Br)OCO2 | 1.70

We next turn to a different compound, shown below.
Query :: Give log10 TGI for the following compound: COc1ccc([C@H](NC(=O)c2ccccc2)[C@@H](O)C(=O)O[C@H]2C[C@@]3(O)C(OC(=O)c4ccccc4)C4[C@](C)(C(=O)[C@H](OC(C)=O)C(=C2C)C3(C)C)[C@@H](O)C[C@H]2OC[C@@]42OC(C)=O)cc1 (stereo not given in full)
Result :: -1.91

Recorded values, source PubChem BioAssay (NCI).
